- target desc: wt human LRRK2, catalytic site (Homo sapiens, UniProt Q5S007)
- Construct: wt human LRRK2, catalytic site; purchased ThermoFisher/USA
- Sequence (Q5S007 1879-2138 limits assumed): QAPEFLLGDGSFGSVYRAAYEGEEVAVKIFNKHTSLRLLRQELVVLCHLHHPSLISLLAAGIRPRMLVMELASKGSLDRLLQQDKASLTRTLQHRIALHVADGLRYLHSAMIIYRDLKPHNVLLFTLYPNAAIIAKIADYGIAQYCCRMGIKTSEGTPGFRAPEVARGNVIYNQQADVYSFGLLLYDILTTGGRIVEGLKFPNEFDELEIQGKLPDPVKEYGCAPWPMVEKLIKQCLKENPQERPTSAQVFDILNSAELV
- assay details: TR-FRET LanthaScreen Tb Kinase Activity Assay (Example 71)
- Format: biochemical
- run conditions: compounds of Table 4, 38 uM ATP, method names only wt human LRRK2, read-out: IC50, Inhibitory Activity Toward LRRK2 (Wt) and LRRK2 (G2019)
measured parameter: IC50

Below are worked cases with known answers.
>>> endpoint_value("Fc1ccc(F)c(C2=Nc3cn[nH]c3-c3cnn4c3N2CCC4)c1F [Compound 367]")
"10 to 100 nM"
>>> endpoint_value("Fc1cccc(C2CC2)c1C1=Nc2cn[nH]c2-c2cnn3c2N1CCC3 [Compound 356]")
"10 to 100 nM"
>>> endpoint_value("Fc1cccnc1C1=Nc2cn[nH]c2-c2cnn3c2N1CCCC3 [Compound 365]")
"> 1000 nM"
>>> endpoint_value("Fc1ccc(Cl)c(F)c1C1=Nc2cn[nH]c2-c2cnn3c2N1CC3 [Compound 390]")
"< 10 nM"
>>> endpoint_value("CC1CCn2ncc3c2N1C(c1c(F)cccc1F)=Nc1cn[nH]c1-3 (centres unmarked) [Compound 351]")
"10 to 100 nM"

Kindly note: wt human LRRK2, catalytic site (Homo sapiens, UniProt Q5S007), Cc1nc2c3n1CCCN3C(c1c(F)cccc1F)=Nc1cn[nH]c1-2 [Compound 352] , IC50 value reported: > 1000 nM

Kindly note: wt human LRRK2, catalytic site (Homo sapiens, UniProt Q5S007), Clc1cccc(Cl)c1C1=Nc2cn[nH]c2-c2cnn3c2N1CCC3 [Compound 342] , IC50 value reported: 10 to 100 nM

Kindly note: wt human LRRK2, catalytic site (Homo sapiens, UniProt Q5S007), Cc1nn2c3c1CCCN3C(c1c(F)cccc1F)=Nc1cn[nH]c1-2 [Compound 374] , IC50 value reported: 100 to 1000 nM

Kindly note: wt human LRRK2, catalytic site (Homo sapiens, UniProt Q5S007), Cc1cccc(C)c1C1=Nc2cn[nH]c2-c2cnn3c2N1CCC3 [Compound 379] , IC50 value reported: 100 to 1000 nM

Kindly note: wt human LRRK2, catalytic site (Homo sapiens, UniProt Q5S007), Fc1cccc(F)c1C1=Nc2cn[nH]c2-c2cnn3c2N1CC3 [Compound 373] , IC50 value reported: < 10 nM

Kindly note: wt human LRRK2, catalytic site (Homo sapiens, UniProt Q5S007), Fc1cccc(Br)c1C1=Nc2cn[nH]c2-c2cnn3c2N1CC3 [Compound 393] , IC50 value reported: 10 to 100 nM

Kindly note: wt human LRRK2, catalytic site (Homo sapiens, UniProt Q5S007), Fc1ccccc1C1=Nc2cn[nH]c2-c2cnn3c2N1CCC3 [Compound 362] , IC50 value reported: 10 to 100 nM

Kindly note: wt human LRRK2, catalytic site (Homo sapiens, UniProt Q5S007), Fc1cc(Cl)cc(F)c1C1=Nc2cn[nH]c2-c2cnn3c2N1CC3 [Compound 388] , IC50 value reported: 10 to 100 nM

Kindly note: wt human LRRK2, catalytic site (Homo sapiens, UniProt Q5S007), Fc1cc2ncccc2c(F)c1C1=Nc2cn[nH]c2-c2cnn3c2N1CC3 [Compound 404] , IC50 value reported: 10 to 100 nM

====

- target desc: wt human LRRK2, catalytic site (Homo sapiens)
- Construct: wt human LRRK2, catalytic site; purchased ThermoFisher/USA
- assay details: TR-FRET LanthaScreen Eu Kinase Binding Assay, LRRK2 wt (Example 72)
- run conditions: Example 72 text; one statement for LRRK2 (Wt) and LRRK2 (G2019); read-out: IC50, Inhibitory Activity Toward LRRK2 (Wt)
Overview of recorded IC50 for various compounds

>>> endpoint_value("Fc1cccc(F)c1C1=Nc2cn[nH]c2-c2nnc3cccn1c2-3")
"10 to 100 nM"

The value of IC50 measured for the compound Fc1cccc(F)c1C1=Nc2cn[nH]c2-c2cnn3c2N1CCC3 turned out to be < 10 nM

The value of IC50 measured for the compound Fc1cccc(F)c1C1=Nc2cn[nH]c2-c2cncc3ncn1c23 turned out to be 100 to 1000 nM

The value of IC50 measured for the compound Fc1cccc(Cl)c1C1=Nc2cn[nH]c2-c2cccc3cnn1c23 turned out to be 10 to 100 nM

The value of IC50 measured for the compound Fc1ccc(F)c(C2=Nc3c[nH]nc3-c3cccc4cnn2c34)c1 turned out to be < 10 nM

The value of IC50 measured for the compound Fc1cc2c3c(cnn3C(c3c(F)cccc3F)=Nc3c[nH]nc3-2)c1 turned out to be 100 to 1000 nM

The value of IC50 measured for the compound Fc1ccccc1C1=Nc2c[nH]nc2-c2cccc3cnn1c23 turned out to be 10 to 100 nM

The value of IC50 measured for the compound Fc1cccc(F)c1C1=Nc2cn[nH]c2-c2cccc3nnn1c23 turned out to be 10 to 100 nM

The value of IC50 measured for the compound Fc1cccc(F)c1C1=Nc2cn[nH]c2-c2ccc(F)c3cnn1c23 turned out to be < 10 nM

====

- target desc: wt human LRRK2, catalytic site (Homo sapiens, UniProt Q5S007)
- Construct: wt human LRRK2, catalytic site; purchased ThermoFisher/USA
- assay details: TR-FRET LanthaScreen Tb Kinase Activity Assay (Example 71)
- Format: biochemical
- run conditions: compounds of Table 4, 38 uM ATP, method names only wt human LRRK2, read-out: IC50, Inhibitory Activity Toward LRRK2 (Wt) and LRRK2 (G2019)
pIC50: −log10 of the molar value.
measured parameter: pIC50

Below are worked cases with known answers.
>>> endpoint_value("Cc1n[nH]c2c1N=C(c1c(F)cccc1Cl)N1CCn3ncc-2c31 [Compound 395]")
"> 8.00"
>>> endpoint_value("Cc1n[nH]c2c1N=C(c1c(F)ccc(Br)c1F)N1CCn3ncc-2c31 [Compound 391]")
"> 8.00"
>>> endpoint_value("Fc1cccc(F)c1C1=Nc2cn[nH]c2-c2cnn3c2N1CCCC3 [Compound 344]")
"7.00 to 8.00"
>>> endpoint_value("N#Cc1ccc(F)c(C2=Nc3cn[nH]c3-c3cnn4c3N2CC4)c1F [Compound 394]")
"> 8.00"
>>> endpoint_value("Fc1ccc(Br)c(Cl)c1C1=Nc2cn[nH]c2-c2cnn3c2N1CC3 [Compound 392]")
"> 8.00"

Kindly note: wt human LRRK2, catalytic site (Homo sapiens, UniProt Q5S007), CC1CCN2C(c3c(F)cccc3F)=Nc3cn[nH]c3-c3cnn1c32 (stereo not shown) [Compound 345] , pIC50 value reported: > 8.00

Kindly note: wt human LRRK2, catalytic site (Homo sapiens, UniProt Q5S007), Cc1cccc(F)c1C1=Nc2cn[nH]c2-c2cnn3c2N1CCC3 [Compound 340] , pIC50 value reported: > 8.00

Kindly note: wt human LRRK2, catalytic site (Homo sapiens, UniProt Q5S007), Fc1cccc(C(F)F)c1C1=Nc2cn[nH]c2-c2cnn3c2N1CCC3 [Compound 381] , pIC50 value reported: 7.00 to 8.00

Kindly note: wt human LRRK2, catalytic site (Homo sapiens, UniProt Q5S007), Fc1ccc(Br)c(F)c1C1=Nc2cn[nH]c2-c2cnn3c2N1CC3 [Compound 389] , pIC50 value reported: > 8.00

Kindly note: wt human LRRK2, catalytic site (Homo sapiens, UniProt Q5S007), Fc1cccc(F)c1C1=Nc2cn[nH]c2-n2ncc3c2N1CCC3 [Compound 369] , pIC50 value reported: 6.00 to 7.00

====

- target desc: wt human NUAK1, full length (Homo sapiens)
- Construct: 8 nM wt human NUAK1, full length (ThermoFisher/USA); purchased ThermoFisher/USA
- Sequence (O60285 1-661): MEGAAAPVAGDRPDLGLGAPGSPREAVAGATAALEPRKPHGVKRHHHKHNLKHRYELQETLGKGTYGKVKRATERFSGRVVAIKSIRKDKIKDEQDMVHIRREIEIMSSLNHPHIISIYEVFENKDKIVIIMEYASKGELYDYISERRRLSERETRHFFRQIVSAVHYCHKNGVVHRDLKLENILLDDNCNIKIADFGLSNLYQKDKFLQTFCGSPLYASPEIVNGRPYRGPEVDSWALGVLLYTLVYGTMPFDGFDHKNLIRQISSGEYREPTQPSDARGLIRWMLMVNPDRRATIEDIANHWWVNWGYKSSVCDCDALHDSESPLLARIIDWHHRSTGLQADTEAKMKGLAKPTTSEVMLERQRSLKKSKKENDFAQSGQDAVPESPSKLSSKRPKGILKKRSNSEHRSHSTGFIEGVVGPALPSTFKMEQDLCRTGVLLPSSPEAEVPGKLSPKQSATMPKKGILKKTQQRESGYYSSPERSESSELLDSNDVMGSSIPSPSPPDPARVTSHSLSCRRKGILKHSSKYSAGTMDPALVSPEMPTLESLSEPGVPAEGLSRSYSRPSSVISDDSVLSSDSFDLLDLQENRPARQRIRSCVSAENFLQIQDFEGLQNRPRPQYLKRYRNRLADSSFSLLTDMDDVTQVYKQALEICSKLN
- assay details: TR-FRET LanthaScreen Eu Kinase Binding Assay, NUAK1 (Example 72)
- run conditions: Example 72 text; read-out: IC50, Inhibitory Activity Toward NUAK1
measured parameter: IC50

>>> endpoint_value("Cc1cn2c3c(cccc13)-c1n[nH]cc1N=C2c1c(F)cccc1F [Compound 313]")
"0.01 to 0.1 µM"
>>> endpoint_value("Fc1ccc(F)c(C2=Nc3c[nH]nc3-c3cccc4cnn2c34)c1 [Compound 315]")
"0.01 to 0.1 µM"
>>> endpoint_value("Fc1cccc(F)c1C1=Nc2cn[nH]c2-c2cccc3nnn1c23 [Compound 304]")
"0.01 to 0.1 µM"

The value of IC50 measured for the compound Fc1cccc(F)c1C1=Nc2cn[nH]c2-c2ccc(F)c3cnn1c23 [Compound 317] turned out to be 0.01 to 0.1 µM

The value of IC50 measured for the compound Fc1cccc(F)c1C1=Nc2cn[nH]c2-c2nnc3cccn1c2-3 [Compound 307] turned out to be 0.01 to 0.1 µM
